Each recorded value in this set is attributed to ChEMBL document CHEMBL1201862.

I'd be grateful if you could share measured GI50 for these entries.
- Tested on: RPMI-8226
- Protocol Notes: NCI tumour cell line growth inhibition, 48 h
The source made the active and inactive calls. Cut-off read from the data, not from the text of the source: active = GI50 up to about 1.1 µM and inactive = higher.

Which GI50 is listed for COc1cc(C2c3cc4c(cc3OC(NN=C(C)C)C2C)OCO4)cc(OC)c1O (stereo not given) ?
6.21 µM (inactive)

Which GI50 is listed for CC(=O)C1=C(O)/C(=C\c2ccco2)OC1=O ?
> 10 µM (inactive)

Which GI50 is listed for COCCCCCC(=O)CP(=O)(OC)OC ?
> 100 µM (inactive)

Which GI50 is listed for COC1=CC(=O)C(O)=C(C[C@@]2(C)[C@@H]3CCC[C@H](COC(=O)CCCCCNC(=O)OC(C)(C)C)[C@@]3(C)CC[C@@H]2C)C1=O ?
3.54 µM (inactive)

Which GI50 is listed for O=C1CCCC2=C1CC1=C(CCCC1=O)N2c1ccc(-c2ccccc2)cc1 ?
> 100 µM (inactive)
